conditions: segatella copri, 12 h, 2 µM
Description: The drug is tested on Prevotella copri strain: DSM18205 for biotransformation. The drug concentrations were measured before and after a 12-h incubation by liquid-chromatography-coupled mass spectrometry (LC–MS)
OBSERVABLE: Bacterial Biotransformation

INSERT INTO measurements (compound, endpoint_value) VALUES
  ('C[C@H]1O[C@@H](O[C@H]2[C@@H](O)C[C@H](O[C@H]3[C@@H](O)C[C@H](O[C@H]4CC[C@@]5(C)[C@H](CC[C@@H]6[C@@H]5C[C@@H](O)[C@]5(C)[C@@H](C7=CC(=O)OC7)CC[C@]65O)C4)O[C@@H]3C)O[C@@H]2C)C[C@H](O)[C@@H]1O', 'Compound NOT metabolized'),
  ('O=P(O)(O)O.c1ccc(CN(CC2=NCCN2)c2ccccc2)cc1 [ANTAZOLINE PHOSPHATE]', 'Compound NOT metabolized'),
  ('CC(=O)OCC(=O)[C@@]1(O)[C@@H](C)C[C@H]2[C@@H]3CCC4=CC(=O)C=C[C@]4(C)[C@@]3(F)[C@@H](O)C[C@@]21C [BETAMETHASONE ACETATE]', 'Compound NOT metabolized'),
  ('CNC(=C[N+](=O)[O-])NCCSCc1csc(CN(C)C)n1', 'Compound metabolized'),
  ('N#Cc1ccc2[nH]cc(CCCCN3CCN(c4ccc5oc(C(N)=O)cc5c4)CC3)c2c1', 'Compound metabolized');

Query CCC(C)n1ncn(-c2ccc(N3CCN(c4ccc(OCC5COC(Cn6cncn6)(c6ccc(Cl)cc6Cl)O5)cc4)CC3)cc2)c1=O (centres undefined) yields Bacterial Biotransformation of Compound NOT metabolized

Noted for C[C@]12C=CC(=O)C=C1CC[C@@H]1[C@@H]2C(=O)C[C@@]2(C)[C@H]1CC[C@]2(O)C(=O)CO : its Bacterial Biotransformation reads Compound NOT metabolized

Form field Bacterial Biotransformation, entry COc1cc2nc(N3CCN(C(=O)C4CCCO4)CC3)nc(N)c2cc1OC (centres undefined) : Compound NOT metabolized

Note to self: Bacterial Biotransformation recorded for CC(=O)O[C@]1(C(C)=O)CC[C@H]2[C@@H]3C=C(C)C4=CC(=O)CC[C@]4(C)[C@H]3CC[C@@]21C [MEGESTROL ACETATE] was Compound NOT metabolized

Note to self: Bacterial Biotransformation recorded for CN1C(C(=O)Nc2ccccn2)=C(O)c2sccc2S1(=O)=O was Compound NOT metabolized

Record Cc1ccc(S(=O)(=O)NC(=O)NN2CCCCCC2)cc1 [TOLAZAMIDE] . Reported Bacterial Biotransformation: Compound metabolized

Recorded Bacterial Biotransformation (compound CN[C@H]1CC[C@@H](c2ccc(Cl)c(Cl)c2)c2ccccc21 ): Compound NOT metabolized

In plain terms, NC(=O)N1c2ccccc2CC(=O)c2ccccc21 [OXCARBAZEPINE] has a documented Bacterial Biotransformation of Compound NOT metabolized

// Bacterial Biotransformation lookup, compound = CC(=O)OCC(=O)[C@@]12N=C(C)O[C@@H]1C[C@H]1[C@@H]3CCC4=CC(=O)C=C[C@]4(C)[C@H]3[C@@H](O)C[C@@]12C , result: Compound metabolized

---

test: The drug is tested on Collinsella intestinalis strain: DSM13280 for biotransformation. The drug concentrations were measured before and after a 12-h incubation by liquid-chromatography-coupled mass spectrometry (LC–MS); conditions: 2 µM
OBSERVABLE: Bacterial Biotransformation

INSERT INTO assay_data (compound, observable, endpoint_value) VALUES
  ('Br.CN(C)CCCC1(c2ccc(F)cc2)OCc2cc(C#N)ccc21 (stereo not drawn) [CITALOPRAM HYDROBROMIDE]', 'Bacterial Biotransformation', 'Compound NOT metabolized'),
  ('C[N+]12CCC(CC1)C(OC(=O)C(O)(c1ccccc1)c1ccccc1)C2.[Br-] (stereo not drawn) [CLIDINIUM BROMIDE]', 'Bacterial Biotransformation', 'Compound NOT metabolized'),
  ('CC(Oc1c(Cl)cccc1Cl)C1=NCCN1 (stereo not drawn)', 'Bacterial Biotransformation', 'Compound NOT metabolized'),
  ('CN1[C@@H]2CC[C@H]1C[C@@H](OC(=O)C(CO)c1ccccc1)C2 (stereo partly drawn)', 'Bacterial Biotransformation', 'Compound NOT metabolized'),
  ('CCOC(=O)[C@H](CCc1ccccc1)N[C@@H](C)C(=O)N1[C@H](C(=O)O)C[C@@H]2CCC[C@@H]21', 'Bacterial Biotransformation', 'Compound NOT metabolized'),
  ('Cc1cc(C)cc(OCC2CNC(=O)O2)c1 (stereo not drawn)', 'Bacterial Biotransformation', 'Compound NOT metabolized'),
  ('C[C@@H]1C[C@H]2[C@@H]3CCC4=CC(=O)C=C[C@]4(C)[C@@]3(F)[C@@H](O)C[C@]2(C)[C@@]1(O)C(=O)CO', 'Bacterial Biotransformation', 'Compound NOT metabolized');

Then there is this compound:
// field: Bacterial Biotransformation; key: O=c1n(CCCN2CCN(c3cccc(Cl)c3)CC2)nc2ccccn12 ; value = Compound NOT metabolized
